Assay: Plasma pharmacokinetics after IV or PO administration (Study 16009-12001)
Type: in vivo, male Balb/c mice
Details: Balb/c, mouse, IV 5 mg/kg, male mice
Measure Name: clearance

INSERT INTO assay_data (compound, measure_name, endpoint_value) VALUES
  ('N=C(N)NCCCCC(=O)Nc1cc(C(F)(F)F)cc(NC(=O)c2cc(C(=O)Nc3cc(C(F)(F)F)cc(NC(=O)CCCCNC(=N)N)c3O[C@@H]3CCNC3)ncn2)c1O[C@@H]1CCNC1 [PMX-30063]', 'clearance', '0.852 mL/min/kg');

----------
System: LPS-induced CINC-3 release, NR8383 cells
Assay: LPS-induced CINC-3 (CXCL2) release in NR8383 rat alveolar macrophages (ELISA)
Assay type: cell-based
Details: Macrophage, 8-hour brilacidin and LPS exposure, read-out: IC50, inhibition of LPS-induced CINC-3 release
Protocol: To examine the effect of brilacidin on production in cells of cytokine-induced neutrophil chemoattractant-3 (CINC-3; CXCL2), rat alveolar macrophage (NR8383) cells were pretreated with a range of brilacidin concentrations for 45 minutes, followed by treatment with 1 μg/ml LPS from E. coli (Sigma, St. Louis, MO) for 8 hours in the presence of brilacidin. […] CINC-3 was measured using an immunoassay kit according to manufacturer's instructions (R&D Systems, Minneapolis, MN). […]
pIC50: −log10 of the molar value.
Measure Name: pIC50

INSERT INTO results (smiles_string, endpoint_value) VALUES
  ('N=C(N)NCCCCC(=O)Nc1cc(C(F)(F)F)cc(NC(=O)c2cc(C(=O)Nc3cc(C(F)(F)F)cc(NC(=O)CCCCNC(=N)N)c3O[C@@H]3CCNC3)ncn2)c1O[C@@H]1CCNC1', 6.37);
